Each recorded value in this set is attributed to the Human Domainome abundance scans (Beltran et al. 2025).

B1: GA-binding protein alpha chain, residues 172 to 250; numbered along this chain, Q06546 (parent)
chain: GYRKEQERLGIPYDPIQWSTDQVLHWVVWVMKEFSMTDIDLTTLNISGRELCSLNQEDFFQRVPRGEILWSHLELLRKY

Variants of: B1
Test description: abundance fitness (aPCA) (normalised: wild type 0, dead -1); higher = more abundant; growth selection in yeast, the domain comes from the species named
Condition info: Homo sapiens
Entries annotated with measured abundance fitness

>>> observed_measurement("K78G")
0.033
>>> observed_measurement("F59L")
-0.424

Request: For the variant `F60H` , give its reported abundance fitness.
Response: -0.118

Request: For the variant `V23K` , give its reported abundance fitness.
Response: -0.791

Request: For the variant `G66M` , give its reported abundance fitness.
Response: -0.967

Request: For the variant `E7D` , give its reported abundance fitness.
Response: 0.031

Request: For the variant `T43Y` , give its reported abundance fitness.
Response: -0.005

Request: For the variant `P15T` , give its reported abundance fitness.
Response: -1.07

Request: For the variant `E33C` , give its reported abundance fitness.
Response: -0.276
